Each recorded value in this set is attributed to paper PMC10327518.

Molecular target: eqBuChE (equine serum BuChE) (Equus caballus, UniProt P81908)
Construct: purchased Sigma-Aldrich Co; host or cells: equine serum (natural source)
Sequence (P81908 whole entry): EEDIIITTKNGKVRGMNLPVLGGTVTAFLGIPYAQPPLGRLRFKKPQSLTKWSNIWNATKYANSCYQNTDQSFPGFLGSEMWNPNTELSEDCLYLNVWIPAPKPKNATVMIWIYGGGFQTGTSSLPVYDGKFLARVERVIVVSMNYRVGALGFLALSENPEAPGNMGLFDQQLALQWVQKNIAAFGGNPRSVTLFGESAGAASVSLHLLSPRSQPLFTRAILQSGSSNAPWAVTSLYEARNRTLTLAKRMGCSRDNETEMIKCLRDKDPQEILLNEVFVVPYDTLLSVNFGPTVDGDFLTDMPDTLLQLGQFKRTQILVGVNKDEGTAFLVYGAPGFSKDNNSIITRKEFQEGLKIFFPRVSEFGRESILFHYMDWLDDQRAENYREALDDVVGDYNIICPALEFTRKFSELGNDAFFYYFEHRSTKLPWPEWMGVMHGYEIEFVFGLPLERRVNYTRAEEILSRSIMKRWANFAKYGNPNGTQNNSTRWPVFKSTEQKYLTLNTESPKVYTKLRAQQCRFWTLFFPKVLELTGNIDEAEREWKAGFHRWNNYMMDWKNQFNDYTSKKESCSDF
Test: biochemical
Measured IC50 accompanies every entry in the list below.
# output: number + unit

| structure.smiles | IC50 |
| --- | --- |
| CN(C)C(=O)Oc1ccc(OC(=O)N(C)C)c(C(=O)N2CCC(Cc3ccccc3)CC2)c1 | 16.3 µM |
| CN(C)C(=O)Oc1ccc(C(=O)N2CCC(Cc3ccccc3)CC2)c(OC(=O)N(C)C)c1 | 0.53 µM |
| CCN(C)C(=O)Oc1ccc(C(=O)N2CCC(Cc3ccccc3)CC2)c(OC(=O)N(C)CC)c1 | 2.6 µM |

Entry `CCN(C)C(=O)Oc1ccc(OC(=O)N(C)CC)c(C(=O)N2CCC(Cc3ccccc3)CC2)c1` : reported IC50 = ?
13.5 µM
